- Experimental Details: absolute recovery over mixed-bed multilayer solid-phase extraction; higher = better recovery
- Condition Notes: wastewater effluent; enrichment method: SPE
Reported Endpoint: absolute recovery (%)
Answers are plain numbers, in %.

Some solved cases for reference:
[[record]]
compound = "COc1ccc2c3c1OC1C(O)C=CC4C(C2)[NH+](C)CCC341 (centres undefined)"
unit_descriptor = "%"
recorded_result = 91.7

[[record]]
compound = "Cc1[nH]c(=O)n(C(C)(C)C)c(=O)c1Cl"
unit_descriptor = "%"
recorded_result = 97.3

[[record]]
compound = "O=C(NCc1ncc(C(F)(F)F)cc1Cl)c1c(Cl)cccc1Cl [Fluopicolide]"
unit_descriptor = "%"
recorded_result = 97.2

[[record]]
compound = "CC(=O)Nc1c(I)c(NC(C)=O)c(I)c(C(=O)[O-])c1I [Diatrizoate (=Amidotrizoic-acid)]"
unit_descriptor = "%"
recorded_result = 73.8

[[record]]
compound = "Nc1ccc(S(=O)(=O)[O-])cc1"
unit_descriptor = "%"
recorded_result = 4.2


For each of the compounds below, note its absolute recovery.
1. CN(C)c1nc(=O)n(C2CCCCC2)c(=O)n1C
2. Cc1cc(C)nc(NC(=O)[N-]S(=O)(=O)c2ccccc2C(=O)OC2COC2)n1

**A:**
[94.3, 93]

Required: absolute recovery, one value per compound below.
1. CCCCc1nc(Cl)c(CO)n1Cc1ccc(-c2ccccc2-c2nn[nH]n2)cc1
2. CCOc1cc(CC(=O)NC(CC(C)C)c2ccccc2N2CCCCC2)ccc1C(=O)[O-] (centres undefined) [Repaglinide]

**A:**
80.1
102

====

For each entry below, report its LC retention time value.
- Experimental Details: LC retention time (Atlantis T3, 5-95% MeOH gradient, 0.1% formic acid); higher = more retained / less polar
Give bare numbers, in min.

Study these solved cases before continuing.
[[record]]
molecule = "c1ccc2c(c1)Cc1ccccc1N1CC[NH2+]CC21 (stereo not given) [Normianserin]"
reported_endpoint = "LC retention time"
recorded_result = 14.8

[[record]]
molecule = "CC(C)(C)[NH2+]CC(O)COc1nsnc1N1CCOCC1 (stereo not given) [Timolol]"
reported_endpoint = "LC retention time"
recorded_result = 12.3

[[record]]
molecule = "CC1CC2C3CCC4=CC(=O)C=CC4(C)C3(F)C(O)CC2(C)C1(O)C(=O)CO (stereo not given) [Betamethasone]"
reported_endpoint = "LC retention time"
recorded_result = 18.7

[[record]]
molecule = "CN(C)C(=O)Nc1ccc(Cl)c(Cl)c1 [Diuron]"
reported_endpoint = "LC retention time"
recorded_result = 18.8


Now look at this entry.
**Q:** Please indicate LC retention time recorded for C=C1CC2C(CCC3(C)C(=O)CCC23)C2(C)C=CC(=O)C=C12 (stereo not given) [Exemestan]
**A:** 19.6

====

- Experimental Details: absolute recovery over vacuum-assisted evaporative concentration; higher = better recovery
- Condition Notes: wastewater influent; enrichment method: VEC
Reported Endpoint: absolute recovery (%)
One number for each entry, in %.

// input: 5 molecules below; output: absolute recovery for each
1. C[NH+](C)CCCC1(c2ccc(F)cc2)OCc2cc(C#N)ccc21 (centres undefined) [Citalopram]
2. C[NH2+]CCC(c1ccccc1)c1ccccn1 (centres undefined) [N-desmethylpheniramine]
3. CN(C)C(=O)Nc1ccc(Cl)cc1 [Monuron]
4. O=C(NCCN1CCOCC1)c1ccc(Cl)cc1 [Moclobemid]
5. Fc1ccc(C2(Cn3cncn3)OC2c2ccccc2Cl)cc1 (centres undefined) [Epoxiconazol]

**A:**
1: 100; 2: 109; 3: 106; 4: 94; 5: 99.3

Hi, could you look up absolute recovery for each item in my list?
1. CCCC1COC(Cn2cncn2)(c2ccc(Cl)cc2Cl)O1 (centres undefined) [Propiconazol]
2. COc1ccc(C(=O)c2ccccc2)c(O)c1 [Benzophenon-3 (=2-Hydroxy-4-methoxybenzophenon)]
3. CCCCOc1cc(C(=O)NCC[NH+](CC)CC)c2ccccc2n1 [Dibucaine]
4. CC(=O)Nc1ccc(S(=O)(=O)[N-]c2nc(C)cc(C)n2)cc1 [N4-Acetyl-Sulfamethazin]

**A:**
1: 101; 2: 56.6; 3: 136; 4: 97.1

====

- Experimental Details: absolute recovery over mixed-bed multilayer solid-phase extraction; higher = better recovery
- Condition Notes: wastewater influent; enrichment method: SPE
Quick rule for you: absolute recovery at 70% or higher means met, lower means not met.

Solved entries (count: 3):
[[record]]
compound = "CC(=O)Nc1ccc(S(=O)(=O)[N-]c2cc(C)on2)cc1 [N4-Acetyl-Sulfamethoxazol]"
label = "met"

[[record]]
compound = "CC1CC2C3CCC4=CC(=O)C=CC4(C)C3(F)C(O)CC2(C)C1(O)C(=O)CO (stereo not drawn) [Dexamethason]"
label = "met"

[[record]]
compound = "c1cncc(C2CCC[NH2+]2)c1 (stereo not drawn) [Nornicotine]"
label = "not met"


We next turn to a different compound, shown below.
**Q:** Kindly determine if absolute recovery recorded for CCCCCCCCCCCC[N+](C)(C)C [Dodecyltrimethylammonium] is above or exactly 70%.
**A:** not met

====

- Experimental Details: absolute recovery over mixed-bed multilayer solid-phase extraction; higher = better recovery
- Condition Notes: wastewater influent; enrichment method: SPE
Reported Endpoint: absolute recovery (%)
Answers are plain numbers, in %.

Completed entries (count: 8):
[[record]]
molecule = "CCCCCCCCCC[N+](C)(C)[O-]"
reported_endpoint = "absolute recovery"
recorded_result = 58.3

[[record]]
molecule = "CC1CC2C3CCC4=CC(=O)C=CC4(C)C3(F)C(O)CC2(C)C1(O)C(=O)CO (stereo not given) [Betamethasone]"
reported_endpoint = "absolute recovery"
recorded_result = 98.7

[[record]]
molecule = "NC(=O)N1c2ccccc2C2OC2c2ccccc21 (stereo not given) [Carbamazepin-10-11-epoxid]"
reported_endpoint = "absolute recovery"
recorded_result = 92.2

[[record]]
molecule = "Cc1nnc(-c2ccccc2)c(=O)[n-]1"
reported_endpoint = "absolute recovery"
recorded_result = 90.1

[[record]]
molecule = "COC(=O)c1cc(C(=O)OC)cc(S(=O)(=O)[O-])c1 [Dimethyl-5-Sulfoisophthalate]"
reported_endpoint = "absolute recovery"
recorded_result = 15.6

[[record]]
molecule = "O=C(Nc1ccccc1)N(Cc1ccc(Cl)cc1)C1CCCC1"
reported_endpoint = "absolute recovery"
recorded_result = 80.4

[[record]]
molecule = "C=C1CC2C(CCC3(C)C(=O)CCC23)C2(C)C=CC(=O)C=C12 (stereo not given)"
reported_endpoint = "absolute recovery"
recorded_result = 98.3

[[record]]
molecule = "O=C([O-])COCC[NH+]1CCN(C(c2ccccc2)c2ccc(Cl)cc2)CC1 (stereo not given)"
reported_endpoint = "absolute recovery"
recorded_result = 92.2


Each molecule below has a recorded value; state its absolute recovery.
1. CS(=O)(=O)c1ccc(C(=O)[O-])c([N+](=O)[O-])c1
2. O=S(=O)([O-])c1ccc2ccc(S(=O)(=O)[O-])cc2c1
3. CCCCOc1ccc(OCCC[NH+]2CCOCC2)cc1
4. C[NH+]1CCN2c3ccccc3Cc3ccccc3C2C1 (stereo not given)
5. Cc1cccc(C)c1N(Cn1cccn1)C(=O)C(=O)[O-]
6. CCOC(=O)C1(c2ccccc2)CC[NH+](C)CC1

**A:**
1: 93.6; 2: 88.8; 3: 84; 4: 68.4; 5: 87.4; 6: 96.6

For the 3 molecules below, give their absolute recovery values.
1. CCc1ccc(CCOc2ccc(CC3SC(=O)[N-]C3=O)cc2)nc1 (stereo not given)
2. CCC(CO)NCC[NH2+]C(CC)CO (stereo not given)
3. NC(=O)N1c2ccccc2C=Cc2ccccc21 [Carbamazepin]

**A:**
[90.7, 66.2, 93.2]

====

- Experimental Details: LC retention time (Atlantis T3, 5-95% MeOH gradient, 0.1% formic acid); higher = more retained / less polar
Reported Endpoint: LC retention time
Write your answer as a measured quantity: the number, then the unit.

[[record]]
compound = "C[NH2+]C(C)Cc1ccccc1 (stereo not given) [Methamphetamin]"
recorded_result = "10.6 min"

[[record]]
compound = "CC(C)N1C(=O)c2ccccc2[N-]S1(=O)=O [Bentazon]"
recorded_result = "17.8 min"

[[record]]
compound = "CNC(=C[N+](=O)[O-])NCCSCc1ccc(C[N+](C)(C)[O-])o1 [Ranitidin-N-oxid]"
recorded_result = "8.99 min"

[[record]]
compound = "N#CN=C1SCCN1Cc1ccc(Cl)nc1 [Thiacloprid]"
recorded_result = "15.1 min"

[[record]]
compound = "CON(C)C(=O)Nc1ccc(Cl)cc1 [Monolinuron]"
recorded_result = "17.9 min"

[[record]]
compound = "CCOc1ccc(NC(=O)OC(C)C)cc1OCC [Diethofencarb]"
recorded_result = "19.2 min"

[[record]]
compound = "N#Cc1c[nH]cc1-c1cccc2c1OC(F)(F)O2 [Fludioxonil]"
recorded_result = "19.5 min"

[[record]]
compound = "CC(=O)Nc1ccc(S(=O)(=O)[N-]c2nc(C)cc(C)n2)cc1 [N4-Acetyl-Sulfamethazin]"
recorded_result = "13.1 min"


Record LC retention time per entry; entries follow.
1. C[NH+]1C2CCC1CC(OC(=O)C(CO)c1ccccc1)C2 (stereo not given) [Atropine]
2. CN1C(=O)CN=C(c2ccccc2)c2cc(Cl)ccc21 [Diazepam]

**A:**
1. 11.1 min
2. 19.5 min
